target: PRMT5-MEP50 enzyme complex (Homo sapiens, UniProt O14744); construct: Full-length (FL)-PRMT5-MEP50 enzyme complex (recombinant proteins from baculovirus-transfected Sf21 cells: FL-PRMT5; MW=73837 kDa and FL-MEP50; MW=38614); made in house; host or cells: baculovirus-transfected Sf21 cells; assay: PRMT5-MEP50 Enzyme Methylation Assay (Version A); assay type: biochemical; conditions: only one EC50 shown: 4 parameters single site sigmoidal model; 60 min pre-incubation with SAM; read-out: Enzyme Methylation Assay Version A (EC50)
Sequence (O14744 whole entry): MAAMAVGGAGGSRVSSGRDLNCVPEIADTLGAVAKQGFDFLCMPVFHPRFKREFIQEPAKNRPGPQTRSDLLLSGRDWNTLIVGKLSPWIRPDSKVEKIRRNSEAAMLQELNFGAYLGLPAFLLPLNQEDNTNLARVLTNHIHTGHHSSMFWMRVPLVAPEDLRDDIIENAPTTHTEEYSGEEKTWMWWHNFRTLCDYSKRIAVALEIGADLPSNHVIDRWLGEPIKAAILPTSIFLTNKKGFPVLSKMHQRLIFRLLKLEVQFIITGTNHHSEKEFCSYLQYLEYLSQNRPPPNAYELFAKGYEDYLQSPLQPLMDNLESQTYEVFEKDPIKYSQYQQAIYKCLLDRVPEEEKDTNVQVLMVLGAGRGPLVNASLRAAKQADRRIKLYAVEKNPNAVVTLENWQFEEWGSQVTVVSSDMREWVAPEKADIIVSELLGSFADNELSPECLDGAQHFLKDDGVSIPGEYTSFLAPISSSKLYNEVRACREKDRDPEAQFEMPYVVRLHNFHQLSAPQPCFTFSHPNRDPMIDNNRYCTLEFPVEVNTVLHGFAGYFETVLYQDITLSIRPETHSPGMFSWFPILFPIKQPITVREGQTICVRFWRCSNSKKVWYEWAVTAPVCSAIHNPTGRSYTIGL
Sequence (Q9BQA1 whole entry partner): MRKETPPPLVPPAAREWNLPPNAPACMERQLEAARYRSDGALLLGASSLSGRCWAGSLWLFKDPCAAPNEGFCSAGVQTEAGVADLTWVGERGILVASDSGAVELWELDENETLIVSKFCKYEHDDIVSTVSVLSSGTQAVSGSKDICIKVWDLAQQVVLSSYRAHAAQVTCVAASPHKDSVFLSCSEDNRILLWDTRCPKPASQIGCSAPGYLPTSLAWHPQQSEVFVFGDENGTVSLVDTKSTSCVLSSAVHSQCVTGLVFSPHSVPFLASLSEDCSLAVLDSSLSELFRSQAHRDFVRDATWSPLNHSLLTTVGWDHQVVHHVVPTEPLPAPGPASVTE
READOUT_KIND: pEC50
Here pEC50 is given on a logarithmic scale as minus log10 of the concentration in mol/L.

Problem: Short answer please: pEC50, PRMT5-MEP50 enzyme complex (Homo sapiens, UniProt O14744), entry `CO[C@H](C)c1cc(C)cn2cc(C(=O)N3CC[C@H](N4CCc5ccccc5C4)[C@@H](O)C3)nc12`
Result: 9.30

Problem: Short answer please: pEC50, PRMT5-MEP50 enzyme complex (Homo sapiens, UniProt O14744), entry CC1CC1c1cnc2nc(C(=O)N3CCC(N4CCc5ccccc5C4)[C@@H](O)C3)cn2c1 (single isomer, unassigned) [Example 130]
Result: 9.15

Problem: Short answer please: pEC50, PRMT5-MEP50 enzyme complex (Homo sapiens, UniProt O14744), entry CC1(C)CC(C2Oc3ccc(C(=O)N4CC[C@H](N5CCc6ccccc6C5)[C@@H](O)C4)cc3NC2=O)CO1 (single isomer, unassigned) [Example 85]
Result: 8.89

###

Can you tell me pEC50 for the items I'm about to list?
molecular target: PRMT5-MEP50 enzyme complex (Homo sapiens); construct: Full-length (FL)-PRMT5-MEP50 enzyme complex (recombinant proteins from baculovirus-transfected Sf21 cells: FL-PRMT5; MW=73837 kDa and FL-MEP50; MW=38614); made in house; host or cells: baculovirus-transfected Sf21 cells; assay: PRMT5-MEP50 Enzyme Methylation Assay (Version A); assay type: biochemical; details: only one EC50 shown: 4 parameters single site sigmoidal model; 60 min pre-incubation with SAM; read-out: Enzyme Methylation Assay Version A (EC50)
Here pEC50 is given on a logarithmic scale as minus log10 of the concentration in mol/L.

Problem: Could you share which pEC50 value was measured for `O=C(c1cn2cc(Br)cc(F)c2n1)N1CC[C@H](N2CCc3ccccc3C2)[C@@H](O)C1` ?
Result: 8.96

Problem: Could you share which pEC50 value was measured for `CCOc1cnc(NC2CCN(C(C)=O)CC2)cc1C(=O)N1CC[C@H](N2CCc3ccccc3C2)[C@@H](O)C1` ?
Result: 8.68

Problem: Could you share which pEC50 value was measured for CC1CC1c1cnc2nc(C(=O)N3CCC(N4CCc5ccccc5C4)[C@@H](O)C3)cn2c1 (single isomer, unassigned) [Example 131] ?
Result: 9.30

Problem: Could you share which pEC50 value was measured for CC(C)(C)OC(=O)N1C2CCC1CC(Nc1cc(C(=O)N3CC[C@H](N4CCc5ccccc5C4)[C@@H](O)C3)c(F)cn1)C2 (stereo partly shown) ?
Result: 8.77

Problem: Could you share which pEC50 value was measured for CC1(C)CC1(C#N)c1cnc2nc(C(=O)N3CC[C@H](N4CCc5ccccc5C4)[C@@H](O)C3)cn2c1 (single isomer, unassigned) [Example 127] ?
Result: 9.40

Problem: Could you share which pEC50 value was measured for `O=C(c1cc(NC2CCN(C(=O)C3CC3)CC2)ncc1F)N1CC[C@H](N2CCc3ccccc3C2)[C@@H](O)C1` ?
Result: 8.89

Problem: Could you share which pEC50 value was measured for O=C(c1cc(NC2CCN3C(=O)CCC3C2)ncc1F)N1CC[C@H](N2CCc3ccccc3C2)[C@@H](O)C1 (single isomer, unassigned) [Example 116] ?
Result: 8.41

Problem: Could you share which pEC50 value was measured for O=C(c1cc(NC2CCN3C(=O)CCC3C2)ncc1F)N1CC[C@H](N2CCc3ccccc3C2)[C@@H](O)C1 (single isomer, unassigned) [Example 115] ?
Result: 8.19

Problem: Could you share which pEC50 value was measured for CC(=O)N1CC2CC1CC2Nc1cc(C(=O)N2CC[C@H](N3CCc4ccccc4C3)[C@@H](O)C2)c(F)cn1 (single isomer, unassigned) ?
Result: 8.46

Problem: Could you share which pEC50 value was measured for `O=C(c1cn2cc(C(F)(F)F)cc(Cl)c2n1)N1CC[C@H](N2CCc3ccccc3C2)[C@@H](O)C1` ?
Result: 8.96

Problem: Could you share which pEC50 value was measured for COC(C)c1cc(Br)cn2cc(C(=O)N3CC[C@H](N4CCc5ccccc5C4)[C@@H](O)C3)nc12 (single isomer, unassigned) ?
Result: 9.40

Problem: Could you share which pEC50 value was measured for `CC(C)c1nc2nc(C(=O)N3CC[C@H](N4CCc5ccccc5C4)[C@@H](O)C3)cn2cc1Br` ?
Result: 9.15

Problem: Could you share which pEC50 value was measured for `CC(C)N1CCNc2cc(C(=O)N3CC[C@H](N4CCc5ccccc5C4)[C@@H](O)C3)ccc2C1=O` ?
Result: 8.44

###

target: PRMT5 (Homo sapiens, UniProt O14744); construct: seeded with 4000 MCF-7 cells in 30 μl media; endogenous in cells; test: PRMT5 Cell Target Engagement (TE) Assay; settings: MCF-7 cells, treated for 3 days, symmetric dimethylation of arginine (SDMA) by high content imaging
READOUT_KIND: pEC50
Here pEC50 is given on a logarithmic scale as minus log10 of the concentration in mol/L.

Problem: Could you share which pEC50 value was measured for O=C(c1ccc2c(O)c(CC(F)(F)F)cnc2c1)N1CC[C@H](N2CCc3ccccc3C2)[C@@H](O)C1 [Example 126] ?
Result: 7.16

Problem: Could you share which pEC50 value was measured for O=C(c1cc(NC2CCN3C(=O)CCC3C2)ncc1F)N1CC[C@H](N2CCc3ccccc3C2)[C@@H](O)C1 (single isomer, unassigned) [Example 117] ?
Result: 8.48

Problem: Could you share which pEC50 value was measured for CC1(C)CC1(C#N)c1cnc2nc(C(=O)N3CC[C@H](N4CCc5ccccc5C4)[C@@H](O)C3)cn2c1 (single isomer, unassigned) [Example 128] ?
Result: 8.96

Problem: Could you share which pEC50 value was measured for O=C(c1cn2cc(Cl)ccc2n1)N1CC[C@H](N2CCc3ccccc3C2)[C@@H](O)C1 [Example 132] ?
Result: 7.49

Problem: Could you share which pEC50 value was measured for CC1CC1c1cnc2nc(C(=O)N3CCC(N4CCc5ccccc5C4)[C@@H](O)C3)cn2c1 (single isomer, unassigned) [Example 131] ?
Result: 8.34

Problem: Could you share which pEC50 value was measured for CC1(C)CC(C2Oc3ccc(C(=O)N4CC[C@H](N5CCc6ccccc6C5)[C@@H](O)C4)cc3NC2=O)CO1 (single isomer, unassigned) [Example 85] ?
Result: 8.19

Problem: Could you share which pEC50 value was measured for COC(=O)N1CCC(Nc2cc(C(=O)N3CC[C@H](N4CCc5ccccc5C4)[C@@H](O)C3)c(F)cn2)CC1 [Example 109] ?
Result: 8.46

Problem: Could you share which pEC50 value was measured for CC(=O)N1CCC(Nc2nccc(C(=O)N3CC[C@@H](N4CCc5ccccc5C4)[C@H](O)C3)c2F)C(F)(F)C1 (single isomer, unassigned) [Example 17] ?
Result: 5.07

Problem: Could you share which pEC50 value was measured for CCC1Oc2ccc(C(=O)N3CC[C@H](N4CCc5ccccc5C4)[C@@H](O)C3)cc2NC1=O (single isomer, unassigned) [Example 11] ?
Result: 8.31

Problem: Could you share which pEC50 value was measured for O=C(c1cc(NC2CC3CCC(C2)N3)ncc1F)N1CC[C@H](N2CCc3ccccc3C2)[C@@H](O)C1 (stereo partly shown) [Example 121] ?
Result: 5.80

Problem: Could you share which pEC50 value was measured for O=C(c1cn2c(n1)CCC(C(F)(F)F)C2)N1CC[C@H](N2CCc3ccccc3C2)[C@@H](O)C1 (single isomer, unassigned) [Example 83] ?
Result: 6.44

Problem: Could you share which pEC50 value was measured for CC1(C)OC(=O)Nc2cc(C(=O)N3CC[C@@H](N4CCc5ccccc5C4)[C@H](O)C3)ccc21 [Example 98] ?
Result: 5.23

Problem: Could you share which pEC50 value was measured for CC(=O)N1CCC(Nc2cc(C(=O)N3CC[C@H](N4CCc5ccccc5C4)[C@@H](O)C3)c(F)cn2)C1 (single isomer, unassigned) [Example 113] ?
Result: 7.30

Problem: Could you share which pEC50 value was measured for CC(=O)N1CCC(Nc2cc(C(=O)N3CC[C@@H](N4CCc5ccccc5C4)[C@H](O)C3)ccn2)C(F)(F)C1 (single isomer, unassigned) [Example 8] ?
Result: 5.03

Problem: Could you share which pEC50 value was measured for CC(=O)N1C2CCC1CC(Nc1cc(C(=O)N3CC[C@H](N4CCc5ccccc5C4)[C@@H](O)C3)c(F)cn1)C2 (stereo partly shown) [Example 122] ?
Result: 8.23

Problem: Could you share which pEC50 value was measured for CC(=O)N1CC2CC1CC2Nc1cc(C(=O)N2CC[C@H](N3CCc4ccccc4C3)[C@@H](O)C2)c(F)cn1 (single isomer, unassigned) [Example 120] ?
Result: 6.50

Problem: Could you share which pEC50 value was measured for O=C(c1cc(NC2CCN3C(=O)CCC3C2)ncc1F)N1CC[C@H](N2CCc3ccccc3C2)[C@@H](O)C1 (single isomer, unassigned) [Example 118] ?
Result: 7.26

Problem: Could you share which pEC50 value was measured for CC1(C)CC(C2Oc3ccc(C(=O)N4CC[C@H](N5CCc6ccccc6C5)[C@@H](O)C4)cc3NC2=O)CO1 (single isomer, unassigned) [Example 84] ?
Result: 8.25

Problem: Could you share which pEC50 value was measured for CC(=O)N1CCC(Nc2cc(C(=O)N3CC[C@@H](N4CCc5ccccc5C4)[C@H](O)C3)ccn2)C(F)(F)C1 (single isomer, unassigned) [Example 9] ?
Result: 5.78

This collection of values is drawn from patent US12595248B2.
